- tgt: UniProtKB P15390
- Sequence (P15390 whole entry): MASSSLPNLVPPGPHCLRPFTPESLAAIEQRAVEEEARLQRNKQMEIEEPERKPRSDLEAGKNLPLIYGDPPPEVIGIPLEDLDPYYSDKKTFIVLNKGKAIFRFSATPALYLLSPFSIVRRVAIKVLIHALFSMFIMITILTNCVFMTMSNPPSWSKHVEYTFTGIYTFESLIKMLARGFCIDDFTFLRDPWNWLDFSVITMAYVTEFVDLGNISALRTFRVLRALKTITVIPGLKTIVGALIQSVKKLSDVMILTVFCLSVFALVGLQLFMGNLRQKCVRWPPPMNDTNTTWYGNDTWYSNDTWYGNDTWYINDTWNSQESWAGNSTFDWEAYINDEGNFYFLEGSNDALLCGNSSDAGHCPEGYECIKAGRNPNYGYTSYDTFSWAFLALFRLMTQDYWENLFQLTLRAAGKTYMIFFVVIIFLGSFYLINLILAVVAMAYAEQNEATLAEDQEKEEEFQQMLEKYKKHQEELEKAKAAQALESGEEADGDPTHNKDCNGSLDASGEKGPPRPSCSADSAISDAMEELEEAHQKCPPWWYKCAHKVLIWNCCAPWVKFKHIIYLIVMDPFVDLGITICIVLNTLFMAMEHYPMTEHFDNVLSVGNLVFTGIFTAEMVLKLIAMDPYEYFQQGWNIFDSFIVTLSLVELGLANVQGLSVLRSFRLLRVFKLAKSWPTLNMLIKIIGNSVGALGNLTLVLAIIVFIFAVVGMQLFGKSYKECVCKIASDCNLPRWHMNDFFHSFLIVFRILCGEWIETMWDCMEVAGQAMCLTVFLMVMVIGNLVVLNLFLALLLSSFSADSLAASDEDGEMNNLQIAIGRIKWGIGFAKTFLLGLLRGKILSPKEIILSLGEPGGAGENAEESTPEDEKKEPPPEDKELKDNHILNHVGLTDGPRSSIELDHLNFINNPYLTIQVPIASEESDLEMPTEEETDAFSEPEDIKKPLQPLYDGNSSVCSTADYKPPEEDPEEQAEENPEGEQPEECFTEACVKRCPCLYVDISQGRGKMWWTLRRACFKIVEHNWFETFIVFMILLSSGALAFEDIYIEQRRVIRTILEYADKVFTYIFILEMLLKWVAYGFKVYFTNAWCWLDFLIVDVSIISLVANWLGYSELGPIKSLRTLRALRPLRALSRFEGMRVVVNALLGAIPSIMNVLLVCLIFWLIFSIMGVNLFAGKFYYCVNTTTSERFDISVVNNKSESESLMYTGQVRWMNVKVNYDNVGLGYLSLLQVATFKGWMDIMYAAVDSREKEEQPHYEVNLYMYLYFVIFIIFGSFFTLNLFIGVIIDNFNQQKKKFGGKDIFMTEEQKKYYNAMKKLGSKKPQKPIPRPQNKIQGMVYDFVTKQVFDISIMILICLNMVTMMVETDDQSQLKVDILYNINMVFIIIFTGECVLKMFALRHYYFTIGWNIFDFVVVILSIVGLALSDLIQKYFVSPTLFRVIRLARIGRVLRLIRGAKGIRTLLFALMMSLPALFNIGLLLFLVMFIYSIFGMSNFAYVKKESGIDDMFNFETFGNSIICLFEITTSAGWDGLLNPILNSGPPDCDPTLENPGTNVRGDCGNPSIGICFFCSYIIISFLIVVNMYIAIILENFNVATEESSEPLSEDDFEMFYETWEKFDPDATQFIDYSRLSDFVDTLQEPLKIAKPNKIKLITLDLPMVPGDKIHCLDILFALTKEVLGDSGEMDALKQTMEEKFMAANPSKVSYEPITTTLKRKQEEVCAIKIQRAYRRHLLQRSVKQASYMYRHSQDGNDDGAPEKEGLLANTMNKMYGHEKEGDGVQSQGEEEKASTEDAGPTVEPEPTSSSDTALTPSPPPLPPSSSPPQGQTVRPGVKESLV
- Sequence (Q00954 19-218, further chain): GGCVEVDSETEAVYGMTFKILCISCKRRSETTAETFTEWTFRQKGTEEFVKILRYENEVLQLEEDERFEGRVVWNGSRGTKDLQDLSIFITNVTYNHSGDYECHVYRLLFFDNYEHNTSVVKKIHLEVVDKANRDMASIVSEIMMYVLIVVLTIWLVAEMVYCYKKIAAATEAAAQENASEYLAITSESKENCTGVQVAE
- protocol details: Two-electrode voltage-clamp on Xenopus laevis oocytes expressing NaV1.4
- stated conditions: read-out: Maximum % inhibition NaV1.4, peptide at 100 μM
Where a SMILES comes first, the peptide text is derived from it. Bridges are numbered along the chain shown (N, C = ends).
Listed here: items and their measured inhibition at 100 µM.
measure: inhibition at 100 µM (%)

compound | operator | observed measurement
C[C@@H]1NC(=O)[C@H](Cc2c[nH]c3ccccc23)NC(=O)[C@H](CCCNC(=N)N)NC(=O)[C@H](C)NC(=O)[C@@H](N)CSSC[C@@H](C(N)=O)NC(=O)[C@H](CCCNC(=N)N)NC(=O)[C@H](CC(N)=O)NC(=O)[C@H](Cc2c[nH]c3ccccc23)NC(=O)[C@H](CCCNC(=N)N)NC1=O [PnCS1[R2A], CARWARWNRC ^*] (H-CARWARWNRC-NH2; disulfide 1-10) | > | 95
C[C@@H]1NC(=O)[C@H](Cc2c[nH]c3ccccc23)NC(=O)[C@H](CCCNC(=N)N)NC(=O)[C@H](CCCNC(=N)N)NC(=O)[C@@H](N)CSSC[C@@H](C(N)=O)NC(=O)[C@H](CCCNC(=N)N)NC(=O)[C@H](CC(N)=O)NC(=O)[C@H](Cc2ccc(O)cc2)NC(=O)[C@H](CCCNC(=N)N)NC1=O [PnCS1[W7Y], CRRWARYNRC ^*] (H-CRRWARYNRC-NH2; disulfide 1-10) | = | 73
C[C@@H]1NC(=O)[C@H](Cc2c[nH]c3ccccc23)NC(=O)[C@H](CCCNC(=N)N)NC(=O)[C@H](CCCNC(=N)N)NC(=O)[C@@H](N)CSSC[C@@H](C(=O)O)NC(=O)[C@H](CCCNC(=N)N)NC(=O)[C@H](CC(N)=O)NC(=O)[C@H](Cc2c[nH]c3ccccc23)NC(=O)[C@H](CCCNC(=N)N)NC1=O [PnCS1DeAm, CRRWARWNRC] (H-CRRWARWNRC-OH; disulfide 1-10) | = | 43
C[C@@H]1NC(=O)[C@H](Cc2c[nH]c3ccccc23)NC(=O)[C@H](CCCNC(=N)N)NC(=O)[C@H](CCCNC(=N)N)NC(=O)[C@@H](N)CSSC[C@@H](C(N)=O)NC(=O)[C@H](CCCNC(=N)N)NC(=O)[C@H](CCCCN)NC(=O)[C@H](Cc2c[nH]c3ccccc23)NC(=O)[C@H](CCCNC(=N)N)NC1=O [PnCS1[N8K], CRRWARWKRC ^*] (H-CRRWARWKRC-NH2; disulfide 1-10) | > | 95

###

- tgt: rNaV1.2 (Rattus norvegicus, UniProt P04775)
Where a SMILES comes first, the peptide text is derived from it. Bridges are numbered along the chain shown (N, C = ends).
IC50 less than 1 µM is Satisfied; IC50 greater than or equal to 1 µM is Not satisfied.

molecule | tgt | label
C[C@@H]1NC(=O)[C@H](Cc2c[nH]c3ccccc23)NC(=O)[C@H](CCCNC(=N)N)NC(=O)[C@H](CCC(=O)O)NC(=O)[C@@H](N)CSSC[C@@H](C(N)=O)NC(=O)[C@H](CCCNC(=N)N)NC(=O)[C@H](CC(N)=O)NC(=O)[C@H](Cc2c[nH]c3ccccc23)NC(=O)[C@H](CCCNC(=N)N)NC1=O [PnCS1[R2E], CERWARWNRC ^*] (H-CERWARWNRC-NH2; disulfide 1-10) | rNaV1.2 (Rattus norvegicus, UniProt P04775) | Not satisfied
C[C@@H]1NC(=O)[C@H](Cc2c[nH]c3ccccc23)NC(=O)[C@H](CCCNC(=N)N)NC(=O)[C@H](CCCNC(=N)N)NC(=O)[C@@H](N)CSSC[C@@H](C(N)=O)NC(=O)[C@H](CCCNC(=N)N)NC(=O)[C@H](CC(N)=O)NC(=O)[C@H](Cc2c[nH]c3ccccc23)NC(=O)[C@H](CCC(=O)O)NC1=O [PnCS1[R6E], CRRWAEWNRC ^*] (H-CRRWAEWNRC-NH2; disulfide 1-10) | rNaV1.2 (Rattus norvegicus, UniProt P04775) | Not satisfied
C[C@@H]1NC(=O)[C@H](Cc2c[nH]c3ccccc23)NC(=O)[C@H](CCCCN)NC(=O)[C@H](CCCNC(=N)N)NC(=O)[C@@H](N)CSSC[C@@H](C(N)=O)NC(=O)[C@H](CCCNC(=N)N)NC(=O)[C@H](CC(N)=O)NC(=O)[C@H](Cc2c[nH]c3ccccc23)NC(=O)[C@H](CCCNC(=N)N)NC1=O [PnCS1[R3K], CRKWARWNRC ^*] (H-CRKWARWNRC-NH2; disulfide 1-10) | rNaV1.2 (Rattus norvegicus, UniProt P04775) | Satisfied
C[C@@H]1NC(=O)[C@H](CCCCN)NC(=O)[C@H](CCCNC(=N)N)NC(=O)[C@H](CCCNC(=N)N)NC(=O)[C@@H](N)CSSC[C@@H](C(N)=O)NC(=O)[C@H](CCCNC(=N)N)NC(=O)[C@H](CC(N)=O)NC(=O)[C@H](Cc2c[nH]c3ccccc23)NC(=O)[C@H](CCCNC(=N)N)NC1=O [PnCS1[W4K], CRRKARWNRC ^*] (H-CRRKARWNRC-NH2; disulfide 1-10) | rNaV1.2 (Rattus norvegicus, UniProt P04775) | Satisfied
C[C@@H]1NC(=O)[C@H](Cc2c[nH]c3ccccc23)NC(=O)[C@H](CCCNC(=N)N)NC(=O)[C@H](CCCNC(=N)N)NC(=O)[C@@H](N)CSSC[C@@H](C(N)=O)NC(=O)[C@H](CCCNC(=N)N)NC(=O)[C@H](CC(N)=O)NC(=O)[C@H](Cc2ccc(O)cc2)NC(=O)[C@H](CCCNC(=N)N)NC1=O [PnCS1[W7Y], CRRWARYNRC ^*] (H-CRRWARYNRC-NH2; disulfide 1-10) | rNaV1.2 (Rattus norvegicus, UniProt P04775) | Not satisfied
C[C@@H]1NC(=O)[C@H](Cc2c[nH]c3ccccc23)NC(=O)[C@H](C)NC(=O)[C@H](CCCNC(=N)N)NC(=O)[C@@H](N)CSSC[C@@H](C(N)=O)NC(=O)[C@H](CCCNC(=N)N)NC(=O)[C@H](CC(N)=O)NC(=O)[C@H](Cc2c[nH]c3ccccc23)NC(=O)[C@H](CCCNC(=N)N)NC1=O [PnCS1[R3A], CRAWARWNRC ^*] (H-CRAWARWNRC-NH2; disulfide 1-10) | rNaV1.2 (Rattus norvegicus, UniProt P04775) | Not satisfied
C[C@@H]1NC(=O)[C@H](CCC(=O)O)NC(=O)[C@H](CCCNC(=N)N)NC(=O)[C@H](CCCNC(=N)N)NC(=O)[C@@H](N)CSSC[C@@H](C(N)=O)NC(=O)[C@H](CCCNC(=N)N)NC(=O)[C@H](CC(N)=O)NC(=O)[C@H](Cc2c[nH]c3ccccc23)NC(=O)[C@H](CCCNC(=N)N)NC1=O [PnCS1[W4E], CRREARWNRC ^*] (H-CRREARWNRC-NH2; disulfide 1-10) | rNaV1.2 (Rattus norvegicus, UniProt P04775) | Not satisfied
C[C@@H]1NC(=O)[C@H](Cc2c[nH]c3ccccc23)NC(=O)[C@H](CCCNC(=N)N)NC(=O)[C@H](CCCNC(=N)N)NC(=O)[C@@H](N)CSSC[C@@H](C(N)=O)NC(=O)[C@H](CCCNC(=N)N)NC(=O)[C@H](CC(N)=O)NC(=O)[C@H](CCC(=O)O)NC(=O)[C@H](CCCNC(=N)N)NC1=O [PnCS1[W7E], CRRWARENRC ^*] (H-CRRWARENRC-NH2; disulfide 1-10) | rNaV1.2 (Rattus norvegicus, UniProt P04775) | Not satisfied
C[C@@H]1NC(=O)[C@H](Cc2c[nH]c3ccccc23)NC(=O)[C@H](CCC(=O)O)NC(=O)[C@H](CCCNC(=N)N)NC(=O)[C@@H](N)CSSC[C@@H](C(N)=O)NC(=O)[C@H](CCCNC(=N)N)NC(=O)[C@H](CC(N)=O)NC(=O)[C@H](Cc2c[nH]c3ccccc23)NC(=O)[C@H](CCCNC(=N)N)NC1=O [PnCS1[R3E], CREWARWNRC ^*] (H-CREWARWNRC-NH2; disulfide 1-10) | rNaV1.2 (Rattus norvegicus, UniProt P04775) | Not satisfied
